# Test system: HCT-116 colon
# ASSAY DETAILS: NCI tumour cell line growth inhibition, 48 h
Assignment: determine reported GI50 for the given compounds.

**Q:** Consider the compound c1ccc(Oc2cnc3ccccc3n2)cc1 and give its measured GI50.
**A:** > 100 µM

**Q:** One more compound: Cn1cc(C2=C(c3cn(CCCN/C(N)=N\[N+](=O)[O-])c4ccccc34)C(=O)NC2=O)c2ccccc21
**A:** 1.82 µM

**Q:** One more compound: Cc1nc(N(C)C)nc(-c2cccc(-c3ccn(CCN(C)C)n3)c2)c1C
**A:** > 20 µM

###

# Tested on: HS 578T breast
# ASSAY DETAILS: NCI tumour cell line growth inhibition, 48 h
Assignment: determine reported TGI for the given compounds.
# number only, unit µM dropped from output

**Q:** Consider the compound NC(CSC(c1ccccc1)(c1ccccc1)c1ccc(Br)cc1)C(=O)O (configuration not stated) and give its measured TGI.
**A:** 0.219

**Q:** One more compound: CCN(CC)CCCNc1c2cc(OC)ccc2nc2cccc([N+](=O)[O-])c12
**A:** 0.448

**Q:** One more compound: COc1cc(-c2nc3cc(Cl)c(Cl)cc3[nH]2)ccc1OCC(=O)N=Nc1c(O)[nH]c2ccccc12
**A:** 4.05

###

# System: HCT-15 colon
# ASSAY DETAILS: NCI tumour cell line growth inhibition, 48 h
Assignment: determine reported TGI for the given compounds.
# number only, unit µM dropped from output

**Q:** Consider the compound C=C(C=O)[C@@H]1CC=C(C=O)CC1 and give its measured TGI.
**A:** 10.1

**Q:** One more compound: C=CCOc1ccc2c(c1)CC[C@@H]1[C@@H]2CC[C@]2(C)C(=O)/C(=N/O)C[C@@H]12
**A:** 7.06

###

Assignment: determine reported GI50 for the given molecules.
# Tested on: NCI-H460 lung

**Q:** Consider the molecule COc1cc(Cl)c(C)cc1NC(=O)c1cc2ccccc2cc1O and give its measured GI50.
**A:** 2.74 µM

**Q:** One more molecule: COc1ccc(S(=O)(=O)Nc2c(/C=C\c3cc(OC)c(OC)c(OC)c3)ccc(OC)c2O)cc1OC
**A:** 0.283 µM

**Q:** One more molecule: COc1cccc(-c2nn(C)c3sc(C(=O)NCCN4CCN(c5ccccc5F)CC4)cc23)c1
**A:** 14.8 µM

###

# Test system: SK-OV-3 ovarian
# ASSAY DETAILS: NCI tumour cell line growth inhibition, 48 h
PROPERTY: TGI

**Q:** Consider the compound C=C(C=O)[C@@H]1CC=C(C=O)CC1 and give its measured TGI.
**A:** 50.5 µM

**Q:** One more compound: CCCCCCOc1ccc(/C=N/Nc2cc(C)nc3ccc(Br)cc23)cc1
**A:** 3.07 µM

**Q:** One more compound: CC1(C)C/C=C\CCC(O)C(O)CCC(C)(C)C1=O (stereo not drawn)
**A:** > 100 µM

**Q:** One more compound: CCCCCC(=O)OC[n+]1ccc(-c2c(COC(=O)NC(C)C)c(COC(=O)NC(C)C)c3n2CCC3)cc1
**A:** > 100 µM

**Q:** One more compound: CC/C(=C(/c1ccc(Cl)cc1)c1ccc(OCCCN(C)C)cc1)c1ccc(OC)cc1
**A:** 17.5 µM

**Q:** One more compound: COC(=O)/C=C/[C@H]1[C@H](C)N1S(=O)(=O)c1ccc(C)cc1 (stereo partly drawn)
**A:** > 100 µM

**Q:** One more compound: COc1ccc2nc3c(cc2c1)C(=O)CC(C(F)(F)F)C3 (stereo not drawn)
**A:** > 100 µM

**Q:** One more compound: CC(NC(=O)C1(N)CCCC1)C(=O)O (stereo not drawn)
**A:** > 100 µM

**Q:** One more compound: COc1ccccc1N1C(=O)/C(=C\c2ccccc2)SC1c1cc(OC)c(OC)c(OC)c1 (stereo not drawn)
**A:** > 100 µM

**Q:** One more compound: CCOc1ccnc2c(OC)c(C)c3nc4ccccc4nc3c12
**A:** > 100 µM

**Q:** One more compound: OC1/C(=C/c2ccccc2)CNC/C1=C\c1ccccc1 (stereo not drawn)
**A:** > 100 µM

**Q:** One more compound: CC(=O)Nc1ccc2cc3c(nc2n1)c1cccnc1n3S(=O)(=O)c1ccccc1
**A:** > 100 µM

**Q:** One more compound: CN=C(NC#N)NCc1ccccc1
**A:** > 100 µM

**Q:** One more compound: NC1=C(O)/C(=N/NS(=O)(=O)c2ccccc2)C(c2cccc(Cl)c2)O1 (stereo not drawn)
**A:** > 100 µM

**Q:** One more compound: Oc1ccccc1/C=N/N1C(=S)N(c2ccccc2)C(=Nc2ccccc2)C1=Nc1ccccc1
**A:** 30.7 µM

**Q:** One more compound: Nc1nc(N)c(N=Nc2ccc([As](=O)(O)O)c(O)c2)c(N)n1
**A:** > 100 µM

**Q:** One more compound: COc1ccc(/C=C\c2cc(OC)c(OC(C)=O)c(OC)c2)cc1
**A:** > 100 µM

**Q:** One more compound: COc1ccc(/C=C/c2cnnc3ccccc23)cc1OC
**A:** > 10 µM

**Q:** One more compound: Cc1cnc2n(c1=O)Cc1ccccc1CO2
**A:** > 100 µM

**Q:** One more compound: O=C1OC(/C=C/c2ccccc2)C(=O)C1=O (stereo not drawn)
**A:** > 100 µM

**Q:** One more compound: C/C(=N\O)c1ccc(Nc2cc(-c3ccccc3)nc3c(O)cccc23)cc1
**A:** 56.1 µM

**Q:** One more compound: NCCCSCC(=O)O
**A:** > 100 µM

**Q:** One more compound: CC(=O)SC(C[N+](=O)[O-])c1ccccc1 (stereo not drawn)
**A:** 26.2 µM

**Q:** One more compound: COc1ccc(/C=C/C(=O)N[C@@H]2C(=O)N3[C@@H]2SC(C)(C)[C@@H]3C(=O)O)cc1OC
**A:** > 100 µM

**Q:** One more compound: COC(=O)/C=C/c1cc(OC)c2c(c1)C(C(=O)OC)C(c1ccc(O)c(OC)c1)O2 (stereo not drawn)
**A:** > 100 µM

**Q:** One more compound: NC(=O)NC(=O)c1cccc(C(=O)NC(N)=O)n1
**A:** > 100 µM

**Q:** One more compound: O=C(Nc1ccc(-n2cc(-c3ccncc3)c(-c3ccc(Cl)c(O)c3)n2)cc1)c1ccc(Cl)c(C(F)(F)F)c1
**A:** 8.81 µM

**Q:** One more compound: C[C@H](N)C(=O)Nc1ccc(-c2nc3ccccc3s2)cc1Cl
**A:** 32.7 µM

**Q:** One more compound: COC(=O)Cc1c(-c2c(CC(=O)OC)c3ccccc3n2C2OC(COC3OC(COC(C)=O)C(OC(C)=O)C(OC(C)=O)C3OC(C)=O)C(O)C(O)C2O)[nH]c2ccccc12 (stereo not drawn)
**A:** > 100 µM

**Q:** One more compound: O=CN/C=C\c1cc(O)ccc1O
**A:** > 100 µM

**Q:** One more compound: COc1ccc2c(c1)cn1c3ccc(OC)cc3[nH]c(=O)c21
**A:** 4.48 µM

**Q:** One more compound: COC(=O)C(Cc1cc(OC)c(OC)c(OC)c1)(NC(=O)c1ccccc1)P(=O)(OC)OC (stereo not drawn)
**A:** > 100 µM

**Q:** One more compound: COc1cc(C2C(C(=O)Nc3ccccc3C)=C(C)NC(C)=C2C(=O)Nc2ccccc2C)ccc1O
**A:** > 100 µM

**Q:** One more compound: O=C1COCCN1c1ccc(NCc2cn(Cc3ccc(F)cc3)c3ccccc23)cc1
**A:** 8.14 µM

**Q:** One more compound: CCOC(=O)C(/C=N/C(N)=S)=C(/O)c1ccccc1
**A:** > 100 µM

**Q:** One more compound: COc1ccc(/C=C2\NC(=S)N(CN3CCOCC3)C2=O)cc1
**A:** > 100 µM

**Q:** One more compound: Nc1c(-c2ccc(-c3c(N)[n+]([O-])c4ccccc4[n+]3[O-])cc2)[n+]([O-])c2ccccc2[n+]1[O-]
**A:** 52.7 µM

**Q:** One more compound: COc1ccc(C2=Nn3c(C)nnc3S/C2=C\c2ccc(-c3ccc([N+](=O)[O-])cc3)o2)cc1
**A:** > 100 µM
